Reference for the values: the supplement of paper PMC8728848

molecular target: Gal(b1-2)Gal; assay: glycan array binding signal (z-score within array); higher = stronger binding; conditions: glycan notation: IUPAC condensed, linker removed
The full list was thinned out, with the strongest signals kept by preference.
PROPERTY MEASURED: glycan array binding signal (z-score)
The response must contain the number and no unit.

Take a look at these entries with their results.
>>> recorded_result("Pbx2CASH domain (Cryptococcus neoformans) (protein) GIPGPNRLYRLSGPIIFTAADQEIATYGYPTGSERAVLRVEGRNTATAIQGDCRRCARVSVKNLVVDGNRKKLGRMRDFQLATGLVVLGGNEGQSIQNSWIKNPRGFTAIHIREGDKLQCSGARVEKNEIGPVGEEYDPEKDGDDPEMSPLGRPLADGVSIACRDSFIRDNTFRDNTDAAIVVYCSPGTLIHA")
-0.585
>>> recorded_result("Epa12 (Candida glabrata) (protein) MGSSHHHHHHSSGLVPRGSHMLEPDNSLQIFDSFLSNPSKYPLGCSPKITNPKKGLSMELYSYPYRKKGSHPCWDPAYLDPNFPRVGYKKNKLIARVDGVSGDINFNFHPKRQCTPIADYLPPNFNYNEPITTTNFTMLLYGYFKPKVTGLHTFDISADDLLFMNFGAGNAFDCCRRDSTADTFGNYVAWAIWGRRIVRNKLTVRLDKGIYYPLRLFFNNRDYYGQMRLTFKTEHGSERITDFSDYFFSVDDTSEGCPGLITYESECADVKSSTVLETDYITIQAEKE")
0.125
>>> recorded_result("Als3-41 (Candida albicans) (protein) KTITGVFNSFNSLTWSNAATYNYKGPGTPTWNAVLGWSLDGTSASPGDTFTLNMPCVFKFTTSQTSVDLTAHGVKYATCQFQAGEEFMTFSTLTCTVSNTLTPSIKALGTVTLPLAFNVGGTGSSVDLEDSKCFTAGTNTVTFNDGGKKISINVDFERSNVDPKGYLTDSRVIPSLNKVSTLFVAPQCANGYTSGTMGFANTYGDVQIDCSNIHVGITKGLNDWNYPVSSESFSYTKTCSSNGIFITYKNVPAGYRPFVDAYISATDVNSYTLSYANEYTCAGGYWQRAPFTLRWTGYRNSDAGSNGIVIVATTRTVTDSTTAVTTLPFDPNRDKTKTIEILKPIPTTTITTSYVGVTTSYLTKTAPIGETATVIVD")
-0.182
>>> recorded_result("LecB LY19 (Pseudomonas aeruginosa) (protein) MATQGVFTLPANTQFGVTAFANSAGTQTVNVQVNNETVATFTGQSTNNGIIGSKVLNSGGGGKVQILVSVNGRSSDLVSAQVILANELNFALVGSEDSTDNDYNDAVVVINWPLG")
-0.514
>>> recorded_result("PEB1 (Campylobacter jejuni), Q0P9X8 (protein) MVFRKSLLKLAVFALGACVAFSNANAAEGKLESIKSKGQLIVGVKNDVPHYALLDQATGEIKGFEVDVAKLLAKSILGDDKKIKLVAVNAKTRGPLLDNGSVDAVIATFTITPERKRIYNFSEPYYQDAIGLLVLKEKKYKSLADMKGANIGVAQAATTKKAIGEAAKKIGIDVKFSEFPDYPSIKAALDAKRVDAFSVDKSILLGYVDDKSEILPDSFEPQSYGIVTKKDDPAFAKYVDDFVKEHKNEIDALAKKWGL")
0.469
>>> recorded_result("Loc1 (Escherichia coli) (protein) APCALTNVGEQRGTYILKPLSMKGNLTAEKIENTGNIIECTDLQETTNAIKVHFLTQNALKFKVGSRHYIINFPFEYDGKKIELPGKSSYNLEEMLSAINFTIPYSIASVSDSSNTADIFPGTPFPLLFEIEVSSCTGNNTNCNSVRFNYNLNTILQVNLMTHHHHHH")
1.18

Consider the record given below.
Lookup: Which glycan array binding signal (z-score) value belongs to Epa6 (Candida glabrata), Q6DTM7_CANGB (protein) MGSSHHHHHHSSGLVPRGSHMKDDYSSSLSNNNLGWTDPTEFPLGCSPNVTTPKNGLSMELYSYDYLKSGSNPCWDAAYLDPNYPRTGYKSHRLLAKVENVAGNINFYYHAPMGCTSLFDTLPQAYNYRTPLTMTNFTMLLYGYFKPKVTGYHTFTISADDLLFVNFGAGNAFDCCKRESSADDFGNYQAYAVWGSQTAKDDLTVHLDAGLYYPIRIFFNNRDNDGALSLTLKTESDPNPVIDFSDYFYSFDDTKDGCPGLVSYDTS ?
Found: 6.14
